experiment: chemical genetic growth profiling, strain panel (AID 1159580);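 also: tested at 20 µM; growth read once vehicle control cultures reached saturation at 30 °C; 1 = growth at the plate median or of vehicle wells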; conditions: S. cerevisiae deletion strains, growth OD, locus YDL035C, strain GPR1, stronger effect = lower value
The whole screen tested about 5,500 compounds, of which about 2,000 (36%) were called active. About 18% were inconclusive and are not listed. Some of the results follow.
Kindly apply the following: Y if normalized growth is less than 1, N in every other case.

Field: example entries. Status: answers known.
{"compound": "CCOP(=S)(OCC)Oc1cc(C)nc(C(C)C)n1", "category-label": "Y"}
{"compound": "C[C@@H]1OC(O[C@H]2C(O[C@H]3CC[C@@]4(C)C(CC[C@]5(C)C4CC=C4C6CC(C)(C)CC[C@]6(C(=O)O)CC[C@]45C)[C@]3(C)CO)OC[C@H](O)[C@@H]2O)[C@H](O)[C@H](O)[C@H]1O (some centres not stated)", "category-label": "Y"}
{"compound": "CCOP(=S)(OCC)Oc1nc(Cl)c(Cl)cc1Cl", "category-label": "N"}
{"compound": "CC(=O)O[C@@H]1CC[C@@]2(C)C(CC[C@]3(C)C2CC=C2C4CC(C)(C)CC[C@]4(C(=O)O)CC[C@]23C)C1(C)C (some centres not stated)", "category-label": "N"}

input: Could you please tell me whether normalized growth recorded for CC1(C)CC[C@]2(C(=O)O)CC[C@]3(C)C(=CCC4[C@@]5(C)CC[C@H](O)[C@@](C)(CO)C5CC[C@]43C)C2C1 (some centres not stated) is less than 1?
output: N

====

assay: chemical genetic growth profiling, strain panel (AID 1159580); settings: S. cerevisiae deletion strains, growth OD, locus YLR027C, strain aat2
Hit rate of the full screen: of about 5,500 compounds, about 2,000 (36%) were called active. Inconclusive results (about 18%) are left out. No stated cut-off is given here; in the data, active means normalized growth mostly below about 0.91 (no sharp cut-off); inconclusive means no clear call, values can overlap the other calls; inactive means mostly above about 0.92. Some of the results follow.
Output constraint: value belongs to label 1 (active), label 0 (inactive)

Field: example entries. Status: answers known.
{"compound": "CC(C)(Sc1cc(C(C)(C)C)c(O)c(C(C)(C)C)c1)Sc1cc(C(C)(C)C)c(O)c(C(C)(C)C)c1", "category-label": "label 0"}
{"compound": "CCCCCCCCCCCC[C@H](C(=O)O)[C@@H](C)C(=O)O", "category-label": "label 0"}

input: What classification did C#C[C@]1(O)CCC2C3CCC4=CC(=O)CC[C@@H]4C3CC[C@@]21C (some centres undefined) end up with in this test?
output: label 0

input: Could you do the same for C[C@]12CCC(=O)C=C1CCC1C2[C@@H](O)C[C@@]2(C)C1CC[C@]2(O)C(=O)CO (some centres undefined) , please?
output: label 0

input: Could you do the same for `Cc1ccc(N=CN(C)C=Nc2ccc(C)cc2C)c(C)c1` , please?
output: label 0

input: Could you do the same for CCC(C)C(=O)O[C@H]1[C@H](O)C2C(CN3CC(C)CCC3[C@@]2(C)O)C2C[C@]34O[C@]5(O)C(OC(=O)C(C)(O)CC)CC[C@@]3(C)C5C(OC(C)=O)[C@@H](OC(C)=O)C4[C@@]21O (some centres undefined) , please?
output: label 0

input: Could you do the same for CCCCCCCCCCCCCCC(C(=O)O)C(O)(CC(=O)OC)C(=O)O (centres undefined) , please?
output: label 0

input: Could you do the same for `O=C(O)CC(O)(CC(=O)O)C(=O)O` , please?
output: label 0

input: Could you do the same for C#C[C@]1(OC(C)=O)CCC2C3CCC4=C/C(=N\O)CCC4C3CC[C@@]21CC (some centres undefined) , please?
output: label 1

====

Would you kindly list normalized growth for each of these molecules?
assay: chemical genetic growth profiling, strain panel (AID 1159580);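 also: tested at 20 µM; growth read once vehicle control cultures reached saturation at 30 °C; 1 = growth at the plate median or of vehicle wells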; details: S. cerevisiae deletion strains, growth OD, locus YDR054C, strain cdc34, stronger effect = lower value
About 2,000 (36%) of roughly 5,500 compounds were called active. About 18% were inconclusive and are not listed. Some of the results follow.
Answers are plain numbers.

Hi! Can you tell me normalized growth for each of these molecules?
1. C=CCc1c(CCC)nc(-c2ccccn2)[nH]c1=O
2. OC1CCN(c2cc(C(F)(F)F)nc3cc(Cl)cc(Cl)c23)CC1
3. O=C(N/N=C\c1cc(Br)ccc1O)c1ccccc1Oc1ccccc1
4. O=C(CSCc1csc2ccccc12)Nc1ccc(F)c(Cl)c1
5. O=C(Nc1ccc(Cl)cc1)SCc1c(Cl)cccc1Cl
6. CCCc1nc(-c2ccccn2)[nH]c(=O)c1CC1CC1
7. CSc1n[nH]c(-c2cc(C(F)(F)F)cc(C(F)(F)F)c2)n1
8. O=C(NCC1COc2ccccc2O1)c1ccc(Cl)cc1 (configuration not stated)

output:
1. 0.916
2. 0.969
3. 0.968
4. 0.97
5. 0.953
6. 0.93
7. 0.938
8. 0.933

Hi! Can you tell me normalized growth for each of these molecules?
1. O=C(NCCc1ccncc1)c1ccc(Cl)c(Cl)c1
2. O=C(Nc1ccccc1Sc1ccc([N+](=O)[O-])cc1[N+](=O)[O-])C(Cl)(Cl)Cl
3. O=C(NCC(c1ccccc1)c1c[nH]c2ccccc12)c1ccc(C(F)(F)F)cc1 (configuration not stated)
4. Clc1ccc2c(c1)c1ccccc1n2CN1CCOCC1
5. Cc1oc(C(C)(C)C)cc1-c1cc(N)n(-c2ccc(I)cc2)n1
6. Cc1ccc(C)c(CSc2nc(C3CCCCC3)c(C#N)c(=O)[nH]2)c1
7. CC(C)Cc1ccc(C(C)C(=O)Nc2nn(C)c3ccccc23)cc1 (configuration not stated)

output:
0.984
0.971
0.984
0.926
1.01
0.983
0.968

Hi! Can you tell me normalized growth for each of these molecules?
1. Nc1ccc(Sc2ccccc2)nc1Sc1ccccc1
2. O=C(NCCNc1ncc(Cl)cc1C(F)(F)F)C(F)(F)Sc1ccccc1
3. CCOC(=O)c1cc(CC)sc1NC(=O)c1ccc([N+](=O)[O-])o1
4. CC(C)(C)C(=O)N(Cc1cccnc1)Cc1ccc(Cl)cc1Cl

output:
[0.947, 0.991, 0.985, 0.991]

Hi! Can you tell me normalized growth for each of these molecules?
1. Nc1ccccc1C(=O)N/N=C\c1cc(Br)ccc1O
2. Cc1csc(NC(=O)Nc2ccc(C(F)(F)F)cc2)c1Cl
3. Cc1ccc(S(=O)(=O)n2c(Sc3ccc([N+](=O)[O-])cc3[N+](=O)[O-])nc3cc(C)ccc32)cc1

output:
[0.97, 0.949, 0.986]

====

assay: chemical genetic growth profiling, strain panel (AID 1159580);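 also: tested at 20 µM; growth read once vehicle control cultures reached saturation at 30 °C; 1 = growth at the plate median or of vehicle wells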; conditions: S. cerevisiae deletion strains, growth OD, locus YOR061W, strain CKA2, stronger effect = lower value
Out of some 5,500 compounds screened, about 2,000 (36%) were called active. Roughly 18% stayed inconclusive and do not appear here. The list shows a part of the results.
readout: normalized growth
Give bare numbers.

Below: 8 molecules and their reported normalized growth.
{"molecule": "NCCC(=O)N[C@@H](Cc1cnc[nH]1)C(=O)O", "readout": "normalized growth", "readout-value": 0.99}
{"molecule": "CC(=O)Nc1ccc(OCC(O)CNC(C)C)cc1 (stereo unspecified)", "readout": "normalized growth", "readout-value": 1.01}
{"molecule": "CCC(C)C(NC)C(=O)O (stereo unspecified)", "readout": "normalized growth", "readout-value": 0.961}
{"molecule": "COc1ccc2c(c1)c(CC(=O)OCC(=O)O)c(C)n2C(=O)c1ccc(Cl)cc1", "readout": "normalized growth", "readout-value": 1.01}
{"molecule": "CC(C)Cc1ccc(C(C)C(=O)Nc2nn(C)c3ccccc23)cc1 (stereo unspecified)", "readout": "normalized growth", "readout-value": 0.938}
{"molecule": "COc1cc(N)c(Cl)cc1C(=O)NC1CCN(Cc2ccccc2)CC1", "readout": "normalized growth", "readout-value": 0.994}
{"molecule": "O=C(CSCc1csc2ccccc12)Nc1ccc(F)c(Cl)c1", "readout": "normalized growth", "readout-value": 0.895}
{"molecule": "Cc1ccc(S(=O)(=O)n2c(Sc3ccc([N+](=O)[O-])cc3[N+](=O)[O-])nc3cc(C)ccc32)cc1", "readout": "normalized growth", "readout-value": 0.873}

Hi! Can you tell me normalized growth for each of these molecules?
1. Nc1ccc(S(=O)(=O)Nc2ccnn2-c2ccccc2)cc1
2. O=S(=O)(NC(=S)Nc1ccc(Cl)c(Cl)c1)c1ccccc1

output:
1: 1.01; 2: 1.02

input: Reported normalized growth for `COC(=O)c1cnn(-c2c(Cl)cccc2Cl)c1C=C(C#N)C#N` : what is it?
output: 0.95

====

experiment: chemical genetic growth profiling, strain panel (AID 1159580);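 also: tested at 20 µM; growth read once vehicle control cultures reached saturation at 30 °C; 1 = growth at the plate median or of vehicle wells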; details: S. cerevisiae deletion strains, growth OD, locus YPL240C, strain hsp82, stronger effect = lower value
Out of some 5,500 compounds screened, about 2,000 (36%) were called active. Inconclusive results (about 18%) are left out. This is one part of the list.
Kindly apply the following: t if normalized growth is less than 1, f in every other case.

input: Could you please tell me whether normalized growth recorded for CC1(C)CCC2(C(=O)O)CCC3(C)C(=CCC4C5(C)CCC(O)C(C)(C)C5C(O)CC43C)C2C1 (stereo unspecified) is less than 1?
output: f

input: Could you do the same for CC(CC(=O)C1OC1(C)C)C1C(=O)CC2(C)C3=CCC4C(C)(C)C(OC5OCC(O)C(O)C5O)CCC45CC35C(O)CC12C (stereo unspecified) , please?
output: f

input: Could you do the same for `Clc1ccccc1C(c1ccccc1)(c1ccccc1)n1ccnc1` , please?
output: t

input: Could you do the same for `O=c1[nH]cc(F)c(=O)[nH]1` , please?
output: t

input: Could you do the same for `C[C@@H]1CC[C@H]2[C@@H](C)C(=O)O[C@@H]3O[C@@]4(C)CC[C@@H]1[C@]32OO4` , please?
output: t
